Assay: Cytotoxicity against non-infected mouse peritoneal macrophage cells measured after 24 hrs
Assay type: toxicity, cell-based
Conditions: non-infected peritoneal macrophages, read-out: LC50
MEASURED_ATTRIBUTE: CC50 at 24 h

Some compounds with known CC50 at 24 h results, for comparison:
O=C(N/N=C/c1ccc([N+](=O)[O-])o1)c1nc2ccccc2[nH]1
> 500 µM
O=C(Cn1ccnc1[N+](=O)[O-])NCc1ccccc1 [BENZNIDAZOLE]
> 1000 µM
O=C(N/N=C/c1ccc(O)cc1)c1nc2ccccc2[nH]1
> 500 µM
COc1ccc(/C=N/NC(=O)c2nc3ccccc3[nH]2)cc1OC
> 500 µM
O=C(N/N=C/c1ccc(O)c(O)c1)c1nc2ccccc2[nH]1
128 µM
COc1ccc(/C=N/NC(=O)c2nc3ccccc3[nH]2)cc1O
120 µM

Next:
I have this compound here, COc1ccc(/C=N/NC(=O)c2nc3ccccc3[nH]2)cc1 , and I need its recorded CC50 at 24 h. > 500 µM

----------
Assay: Selectivity index, ratio of CC50 for mouse RAW264.7 cells to IC50 for Leishmania infantum amastigotes infected in mouse RAW264.7 cells
Format: toxicity, cell-based
Details: read-out: Ratio CC50/IC50
Each entry below lists one item and its recorded selectivity ratio value.
No unit in the answer, only the number.

O=C(N/N=C/c1ccc(O)cc1)c1nc2ccccc2[nH]1
0.9

I have this compound here, O=C(N/N=C/c1cccs1)c1nc2ccccc2[nH]1 , and I need its recorded selectivity ratio. 2.7

I have this compound here, O=C(N/N=C/c1ccccc1)c1nc2ccccc2[nH]1 , and I need its recorded selectivity ratio. 2.3

I have this compound here, COc1ccc(/C=N/NC(=O)c2nc3ccccc3[nH]2)cc1 , and I need its recorded selectivity ratio. 5.1

I have this compound here, CCCCCCCCCCCCCCCCOP(=O)([O-])OCC[N+](C)(C)C [MILTEFOSINE] , and I need its recorded selectivity ratio. 12.7

----------
Each entry below lists one item and its recorded selectivity ratio value.
Assay: Selectivity index, ratio of CC50 for mouse L929 cells to IC50 for Trypanosoma cruzi Tulahuen expressing beta-galactosidase gene infected in mouse L929 cells
Assay type: toxicity, cell-based
Conditions: read-out: Ratio CC50/IC50
No unit in the answer, only the number.

O=C(N/N=C/c1ccncc1)c1nc2ccccc2[nH]1
8.2

I have this compound here, COc1ccc(/C=N/NC(=O)c2nc3ccccc3[nH]2)cc1 , and I need its recorded selectivity ratio. 2.1

I have this compound here, O=C(N/N=C/c1ccc2c(c1)OCO2)c1nc2ccccc2[nH]1 , and I need its recorded selectivity ratio. 1.4

I have this compound here, COc1cc(/C=N/NC(=O)c2nc3ccccc3[nH]2)ccc1O , and I need its recorded selectivity ratio. 1.1

I have this compound here, O=C(N/N=C/c1ccc(O)cc1)c1nc2ccccc2[nH]1 , and I need its recorded selectivity ratio. 2.5

I have this compound here, COc1ccc(/C=N/NC(=O)c2nc3ccccc3[nH]2)cc1OC , and I need its recorded selectivity ratio. 1.7

I have this compound here, O=C(N/N=C/c1ccc([N+](=O)[O-])o1)c1nc2ccccc2[nH]1 , and I need its recorded selectivity ratio. 7680

I have this compound here, COc1cc(/C=N/NC(=O)c2nc3ccccc3[nH]2)cc(OC)c1OC , and I need its recorded selectivity ratio. 5.7

I have this compound here, O=C(N/N=C/c1ccccc1)c1nc2ccccc2[nH]1 , and I need its recorded selectivity ratio. 2.1

I have this compound here, O=C(N/N=C/c1ccc(Br)cc1)c1nc2ccccc2[nH]1 , and I need its recorded selectivity ratio. 6.8

I have this compound here, O=C(N/N=C/c1ccc(F)cc1)c1nc2ccccc2[nH]1 , and I need its recorded selectivity ratio. 1.5

I have this compound here, O=C(N/N=C/c1ccc(Cl)cc1)c1nc2ccccc2[nH]1 , and I need its recorded selectivity ratio. 3.5

I have this compound here, O=C(N/N=C/c1ccccc1O)c1nc2ccccc2[nH]1 , and I need its recorded selectivity ratio. 14.7

I have this compound here, COc1ccc(/C=N/NC(=O)c2nc3ccccc3[nH]2)cc1O , and I need its recorded selectivity ratio. 6.2

----------
Experiment: Cytotoxicity against mouse RAW264.7 cells measured after 48 hrs
Format: toxicity, cell-based
Each entry below lists one item and its recorded CC50 at 48 h value.
Numeric answer only, unit µM assumed.

O=C(N/N=C/c1cccs1)c1nc2ccccc2[nH]1
131
O=C(N/N=C/c1ccc(Br)cc1)c1nc2ccccc2[nH]1
8.6
O=C(N/N=C/c1ccc(O)cc1)c1nc2ccccc2[nH]1
88.8
COc1ccc(/C=N/NC(=O)c2nc3ccccc3[nH]2)cc1OC
53.6
O=C(N/N=C/c1ccccc1)c1nc2ccccc2[nH]1
123
O=C(N/N=C/c1ccc(O)c(O)c1)c1nc2ccccc2[nH]1
14.8
O=C(N/N=C/c1ccc(F)cc1)c1nc2ccccc2[nH]1
57.8
COc1ccc(/C=N/NC(=O)c2nc3ccccc3[nH]2)cc1O
88.9

I have this compound here, COc1cc(/C=N/NC(=O)c2nc3ccccc3[nH]2)cc([N+](=O)[O-])c1O , and I need its recorded CC50 at 48 h. 84.4

I have this compound here, COc1cc(/C=N/NC(=O)c2nc3ccccc3[nH]2)ccc1O , and I need its recorded CC50 at 48 h. 89.9

I have this compound here, CCCCCCCCCCCCCCCCOP(=O)([O-])OCC[N+](C)(C)C , and I need its recorded CC50 at 48 h. 21.8

----------
Each entry below lists one item and its recorded CC50 at 120 h value.
Experiment: Cytotoxicity against mouse L929 cells assessed as inhibition of cell viability measured after 120 hrs
Assay type: toxicity, cell-based

Some compounds with known CC50 at 120 h results, for comparison:
O=C(Cn1ccnc1[N+](=O)[O-])NCc1ccccc1 [BENZNIDAZOLE]
2110 µM
O=C(N/N=C/c1ccc2c(c1)OCO2)c1nc2ccccc2[nH]1
148 µM
COc1ccc(/C=N/NC(=O)c2nc3ccccc3[nH]2)cc1OC
293 µM
COc1cc(/C=N/NC(=O)c2nc3ccccc3[nH]2)ccc1O
72.2 µM
COc1cc(/C=N/NC(=O)c2nc3ccccc3[nH]2)cc(OC)c1
164 µM

I have this compound here, O=C(N/N=C/c1ccc([N+](=O)[O-])o1)c1nc2ccccc2[nH]1 , and I need its recorded CC50 at 120 h. 257 µM

I have this compound here, O=C(N/N=C/c1ccc(Br)cc1)c1nc2ccccc2[nH]1 , and I need its recorded CC50 at 120 h. 49.8 µM

I have this compound here, O=C(N/N=C/c1ccccc1)c1nc2ccccc2[nH]1 , and I need its recorded CC50 at 120 h. 204 µM

I have this compound here, O=C(N/N=C/c1ccc([N+](=O)[O-])cc1)c1nc2ccccc2[nH]1 , and I need its recorded CC50 at 120 h. > 323 µM

I have this compound here, O=C(N/N=C/c1ccc(Cl)cc1)c1nc2ccccc2[nH]1 , and I need its recorded CC50 at 120 h. 51.9 µM

I have this compound here, O=C(N/N=C/c1ccc(O)c(O)c1)c1nc2ccccc2[nH]1 , and I need its recorded CC50 at 120 h. 102 µM

----------
Experiment: Selectivity index, ratio of CC50 for mouse RAW264.7 cells to IC50 for Leishmania infantum amastigotes infected in mouse RAW264.7 cells
Type: toxicity, cell-based
Conditions: read-out: Ratio CC50/IC50
Each entry below lists one item and its recorded selectivity ratio value.
No unit in the answer, only the number.

Some compounds with known selectivity ratio results, for comparison:
O=C(N/N=C/c1ccc(Cl)cc1)c1nc2ccccc2[nH]1
0.4
COc1ccc(/C=N/NC(=O)c2nc3ccccc3[nH]2)cc1O
1.7
O=C(N/N=C/c1ccc([N+](=O)[O-])o1)c1nc2ccccc2[nH]1
0.4

I have this compound here, O=C(N/N=C/c1ccc(O)c(O)c1)c1nc2ccccc2[nH]1 , and I need its recorded selectivity ratio. 0.4

I have this compound here, O=C(N/N=C/c1ccc(F)cc1)c1nc2ccccc2[nH]1 , and I need its recorded selectivity ratio. 3.1

I have this compound here, O=C(N/N=C/c1ccccc1O)c1nc2ccccc2[nH]1 , and I need its recorded selectivity ratio. 1.3

----------
Experiment: Cytotoxicity against mouse L929 cells assessed as inhibition of cell viability measured after 120 hrs
Assay type: toxicity, cell-based
Each entry below lists one item and its recorded CC50 at 120 h value.
Numeric answer only, unit µM assumed.

Some molecules with known CC50 at 120 h results, for comparison:
O=C(N/N=C/c1ccc(O)cc1)c1nc2ccccc2[nH]1
170
O=C(N/N=C/c1ccncc1)c1nc2ccccc2[nH]1
265
O=C(N/N=C/c1ccc(F)cc1)c1nc2ccccc2[nH]1
354
COc1ccc(/C=N/NC(=O)c2nc3ccccc3[nH]2)cc1O
153
O=C(N/N=C/c1cccs1)c1nc2ccccc2[nH]1
170
COc1ccc(/C=N/NC(=O)c2nc3ccccc3[nH]2)cc1
170
O=C(N/N=C/c1ccccc1O)c1nc2ccccc2[nH]1
52.4
COc1cc(/C=N/NC(=O)c2nc3ccccc3[nH]2)cc(OC)c1OC
203

Next:
I have this molecule here, COc1cc(/C=N/NC(=O)c2nc3ccccc3[nH]2)cc([N+](=O)[O-])c1O , and I need its recorded CC50 at 120 h. 124
